METHOD: Pharmacokinetic parameters in rats
Assay type: in vivo
RUN CONDITIONS: male, SD, rat, plasma, iv, 20 mg/kg
MEASURE NAME: Cmax (ng/mL)

MOLECULE	MEASURE NAME	READOUT VALUE
C=C1C(=O)[C@@]23C(C(=O)C[C@@H]1[C@H]2OC(=O)[C@@H](N)C(C)C)[C@]12CCCC(C)(C)C1C[C@H]3OC2=O (stereo partly shown)	Cmax	18300

###

METHOD: Pharmacokinetic parameters in rats
Type: in vivo
RUN CONDITIONS: male, SD, rat, plasma, iv, 20 mg/kg
MEASURE NAME: Vd (L/kg)

COMPOUND	READOUT UNITS	READOUT VALUE
C=C1C(=O)[C@@]23C(C(=O)C[C@@H]1[C@H]2OC(=O)[C@@H](N)C(C)C)[C@]12CCCC(C)(C)C1C[C@H]3OC2=O (stereo partly shown)	L/kg	7.73
